Where do the numbers come from? From patent US9249127B2.

test target: alpha2A receptor (Homo sapiens, UniProt P08913)
Sequence (P08913 whole entry): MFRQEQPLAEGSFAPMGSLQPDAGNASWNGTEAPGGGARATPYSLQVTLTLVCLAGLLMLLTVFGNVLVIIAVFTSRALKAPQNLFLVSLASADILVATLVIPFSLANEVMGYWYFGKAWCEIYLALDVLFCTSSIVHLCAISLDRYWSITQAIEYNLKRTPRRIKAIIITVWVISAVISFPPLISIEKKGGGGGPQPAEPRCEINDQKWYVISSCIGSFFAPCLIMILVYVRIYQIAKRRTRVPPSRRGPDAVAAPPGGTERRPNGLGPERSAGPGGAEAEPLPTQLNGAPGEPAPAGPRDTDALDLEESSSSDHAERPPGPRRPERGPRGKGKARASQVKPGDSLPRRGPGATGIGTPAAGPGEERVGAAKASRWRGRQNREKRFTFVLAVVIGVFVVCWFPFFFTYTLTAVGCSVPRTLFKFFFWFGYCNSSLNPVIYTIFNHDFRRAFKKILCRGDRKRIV
test summary: Alpha2A agonistic activity in vitro
Format: cell-based
condition description: in vitro; read-out: Alpha2A Agonism pEC50 (converted)
Each item that follows carries a reported EC50.
Only the number, expressed in nM, is required.

Illustrative cases are given below, each with its answer.
# compound, EC50, nM
data = [
    ("CCc1cccc2c1C[C@@H](CC)OC2C1=NCCN1 (some centres unmarked)", 2000),
    ("CCC1Cc2c(Br)cc(Br)cc2C(C2=NCCN2)O1 (centres unmarked)", 1000),
    ("NC(=O)c1cccc2c1CCOC2C1=NCCN1 (centres unmarked)", 3160),
    ("COc1cccc2c1CCOC2C1=NCCN1 (single isomer, unassigned) [Example 82]", 158),
]

q: Recorded EC50 for CC1(C2=NCCN2)OCCc2c(Br)cccc21 (single isomer, unassigned) , please?
a: 158
